Biological target: T1, EsCas13d, nuclease-dead (Eubacterium siraeum, UniProt B0MS50, R295A;H300A;R849A;H854A)
T1 sequence: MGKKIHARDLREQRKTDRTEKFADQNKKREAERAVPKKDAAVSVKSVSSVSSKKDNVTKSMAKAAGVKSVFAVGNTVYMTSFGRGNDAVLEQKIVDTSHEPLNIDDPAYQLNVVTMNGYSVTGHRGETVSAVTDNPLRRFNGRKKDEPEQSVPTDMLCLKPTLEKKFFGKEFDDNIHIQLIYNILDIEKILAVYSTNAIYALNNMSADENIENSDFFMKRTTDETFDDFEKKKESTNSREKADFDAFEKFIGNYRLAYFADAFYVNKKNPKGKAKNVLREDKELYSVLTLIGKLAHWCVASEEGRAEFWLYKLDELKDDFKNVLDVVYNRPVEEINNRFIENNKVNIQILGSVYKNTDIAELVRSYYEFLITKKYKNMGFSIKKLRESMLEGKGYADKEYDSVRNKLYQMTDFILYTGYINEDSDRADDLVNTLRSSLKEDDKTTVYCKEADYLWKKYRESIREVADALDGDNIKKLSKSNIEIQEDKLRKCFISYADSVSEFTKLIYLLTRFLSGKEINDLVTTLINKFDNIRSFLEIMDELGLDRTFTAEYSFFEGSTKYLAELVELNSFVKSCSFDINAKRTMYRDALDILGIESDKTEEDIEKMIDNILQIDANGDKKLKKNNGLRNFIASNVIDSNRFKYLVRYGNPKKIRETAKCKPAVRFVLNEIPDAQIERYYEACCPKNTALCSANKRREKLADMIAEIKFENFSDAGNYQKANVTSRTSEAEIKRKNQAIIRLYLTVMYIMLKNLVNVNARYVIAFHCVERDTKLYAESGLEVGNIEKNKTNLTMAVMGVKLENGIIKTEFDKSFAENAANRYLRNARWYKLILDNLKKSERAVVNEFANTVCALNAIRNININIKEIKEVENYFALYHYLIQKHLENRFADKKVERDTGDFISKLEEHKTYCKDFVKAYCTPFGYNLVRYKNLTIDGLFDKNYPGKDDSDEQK
Assay: crRNA (strand 1, pre-loaded); Mg2+; 40 mM Tris-HCl pH 7.5, 150 mM NaCl, 6 mM MgCl2, 1 mM DTT, 0.1% Tween-20, 0.2 mg/ml BSA; 25 C; 10 min per concentration, then washed
Conditions: tags: His6-TwinStrep-SUMO cleaved; N-terminal SNAP kept (SNAP-Surface 488); label: 3' end held by stalled T7 RNA polymerase
readout-kind: pKd
Reminder that pKd is minus the log10 of a molar concentration.

>>> endpoint_result("target 3 insG 3' of 7,insA 3' of 4 (mixed) RNA 1: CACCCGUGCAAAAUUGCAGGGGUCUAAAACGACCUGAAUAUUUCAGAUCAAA RNA 2: GGGAAUGGAUCCACAUCUACGAAUUCGUUUUUGAUCUGAAAUAUUGCAGAGUCUGCAGAUCGGAAGAGCACACGU")
7.06
>>> endpoint_result("target 1 MT 5'PFS GUC 3'PFS AAA (mixed) RNA 1: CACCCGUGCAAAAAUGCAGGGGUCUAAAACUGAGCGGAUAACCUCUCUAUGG RNA 2: GGGAAUGGAUCCACAUCUACGAAUUCGUCCCAUAGAGAGGUUAUCCGCUCAAAAAGAUCGGAAGAGCACACGU")
7.42
>>> endpoint_result("target 1 MT 5'PFS UCG 3'PFS AGU (mixed) RNA 1: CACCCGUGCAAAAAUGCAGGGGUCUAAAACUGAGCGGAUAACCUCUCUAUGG RNA 2: GGGAAUGGAUCCACAUCUACGAAUUCUCGCCAUAGAGAGGUUAUCCGCUCAAGUAGAUCGGAAGAGCACACGU")
7.30
>>> endpoint_result("target 1 C6G,A20U (mixed) RNA 1: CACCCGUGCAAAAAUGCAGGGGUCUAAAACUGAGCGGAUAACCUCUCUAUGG RNA 2: GGGAAUGGAUCCACAUCUACGAAUUCGUACCUUAGAGAGGUUAUCGGCUCACCGAGAUCGGAAGAGCACACGU")
7.39
>>> endpoint_result("target 1 MT 5'PFS CAA 3'PFS CAU (mixed) RNA 1: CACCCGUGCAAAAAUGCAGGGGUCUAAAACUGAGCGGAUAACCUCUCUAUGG RNA 2: GGGAAUGGAUCCACAUCUACGAAUUCCAACCAUAGAGAGGUUAUCCGCUCACAUAGAUCGGAAGAGCACACGU")
7.49

Return reported pKd. Input binder: target 3 insC 3' of 7,insU 3' of 3 (mixed) RNA 1: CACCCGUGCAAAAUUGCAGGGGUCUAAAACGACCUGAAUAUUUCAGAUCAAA RNA 2: GGGAAUGGAUCCACAUCUACGAAUUCGUUUUUGAUCUGAAAUAUUCCAGGUUCUGCAGAUCGGAAGAGCACACGU
7.31

Return reported pKd. Input binder: target 1 MT 5'PFS UAG 3'PFS CCG (mixed) RNA 1: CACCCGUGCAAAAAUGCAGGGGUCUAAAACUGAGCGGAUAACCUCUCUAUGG RNA 2: GGGAAUGGAUCCACAUCUACGAAUUCUAGCCAUAGAGAGGUUAUCCGCUCACCGAGAUCGGAAGAGCACACGU
7.66

Where do the numbers come from? From paper PMC10786891.
